System: K562 (chronic myelogenous leukaemia)
test.details: Effect of compounds on tumor cell lines (assay of Latham et al.), K562
Assay type: cell-based
test.parameters: K562 cells, 96 hours after treatment, 1 μM to 100 μM; read-out: K 562 potency (IC50)
metric: IC50

// query Form: Entry = COc1ccc(OC)c(C=C(SCc2ccc(Cl)c(Cl)c2)C(=O)c2ccc(Cl)cc2)c1 [Example 138] | System = K562 (chronic myelogenous leukaemia) | IC50 = ____
// result 10 to 25 µM

// query Form: Entry = O=C(C(=Cc1ccc(O)cc1O)SCc1cccc(Cl)c1)c1ccc(Br)cc1 [Example 145] | System = K562 (chronic myelogenous leukaemia) | IC50 = ____
// result 25 to 50 µM

// query Form: Entry = CN(C)c1ccc(C=C(SCc2ccc(Cl)cc2)C(=O)c2ccc(Cl)cc2)cc1 [Example 210] | System = K562 (chronic myelogenous leukaemia) | IC50 = ____
// result 10 to 25 µM

// query Form: Entry = Cc1ccc(CSC(=Cc2ccc(O)cc2)C(=O)c2ccc(Cl)cc2)cc1 [Example 292] | System = K562 (chronic myelogenous leukaemia) | IC50 = ____
// result 1 to 10 µM

// query Form: Entry = COc1ccc(C=C(SCc2ccc(Cl)cc2)C(=O)c2ccc(Cl)cc2)cc1O [Example 204] | System = K562 (chronic myelogenous leukaemia) | IC50 = ____
// result ≤ 1 µM

// query Form: Entry = O=C(C(=Cc1ccc(F)cc1)SCc1ccc(Br)cc1)c1ccc(SCc2ccc(Br)cc2)c([N+](=O)[O-])c1 [Example 319] | System = K562 (chronic myelogenous leukaemia) | IC50 = ____
// result > 100 µM

// query Form: Entry = Cc1ccc(C)c(C=C(SCc2ccc(F)cc2)C(=O)c2ccc(Br)cc2)c1 [Example 235] | System = K562 (chronic myelogenous leukaemia) | IC50 = ____
// result 50 to 100 µM

// query Form: Entry = COc1ccc(C=C(SCc2ccc(Cl)cc2)C(=O)c2ccc(Br)cc2)cc1O [Example 203] | System = K562 (chronic myelogenous leukaemia) | IC50 = ____
// result 1 to 10 µM

// query Form: Entry = O=C(C(=Cc1cccc(Cl)c1Cl)SCc1ccc(Cl)cc1)c1ccc(Cl)cc1 [Example 191] | System = K562 (chronic myelogenous leukaemia) | IC50 = ____
// result 1 to 10 µM

// query Form: Entry = O=C(O)c1ccc(C(=O)C(=Cc2ccc(Br)c([N+](=O)[O-])c2)SCc2ccc(Cl)cc2Cl)cc1 [Example 299] | System = K562 (chronic myelogenous leukaemia) | IC50 = ____
// result ≤ 1 µM
